# Test system: Plasmodium falciparum
# test: GSK_TCMDC: Inhibition of Plasmodium falciparum Dd2 in whole red blood cells, using parasite LDH activity as an index of growth. Test compounds present at 2uM
# Format: functional
value.type: Inhibition (%)
Give just the numeric value; % need not be written.

## Input Reported Inhibition, compound COc1cccc2c(NN=Cc3cccc(Cl)c3)cc(C)nc12 : ____
## Output 75

## Input Reported Inhibition, compound CCSc1nnc(C2CCCN(CC(=O)Nc3cc(C(F)(F)F)ccc3Cl)C2)n1CC (centres undefined) : ____
## Output 96

## Input Reported Inhibition, compound CCc1cn(CCS(C)(=O)=O)c2ccc(C(=O)N[C@@H](Cc3ccccc3)[C@H](O)CNC(C)(C)CCCC(C)C)cc12.O=CO : ____
## Output 96

## Input Reported Inhibition, compound Cc1nc(-c2ccc(-c3ccc(C(=O)Nc4ccc(I)c(OCCN5CCCC5)c4)cc3)c(C)c2)no1.Cl : ____
## Output 35

## Input Reported Inhibition, compound CCCCCCOc1ccc(C(=O)N(Cc2ccccc2)c2c(-c3ccccc3)nc3cc(C)ccn23)cc1 : ____
## Output 96

## Input Reported Inhibition, compound Cc1cccc2nc(-c3cccc(-c4ccc(CNCc5ccc(S(C)(=O)=O)cc5)cc4)c3)[nH]c12.O=C(O)C(F)(F)F : ____
## Output 98

## Input Reported Inhibition, compound CCNc1cc(C(=O)N[C@@H](Cc2ccccc2)[C@H](O)CNCc2cccc(-c3cncnc3)c2)cc(N2CCCC2=O)c1.O=C(O)C(F)(F)F : ____
## Output 96

## Input Reported Inhibition, compound CNC(=O)C(C)N(c1ccc(Cl)cc1)c1nc(C(C)(C)C)cs1 (centres undefined) : ____
## Output 98

## Input Reported Inhibition, compound CCCc1cc(Cc2cnc(N)nc2N)cc2c1OC(C)(C)C2.Cl : ____
## Output 3
